Biological target: rCB1 (Rattus norvegicus, UniProt P20272)
Sequence (P20272 whole entry): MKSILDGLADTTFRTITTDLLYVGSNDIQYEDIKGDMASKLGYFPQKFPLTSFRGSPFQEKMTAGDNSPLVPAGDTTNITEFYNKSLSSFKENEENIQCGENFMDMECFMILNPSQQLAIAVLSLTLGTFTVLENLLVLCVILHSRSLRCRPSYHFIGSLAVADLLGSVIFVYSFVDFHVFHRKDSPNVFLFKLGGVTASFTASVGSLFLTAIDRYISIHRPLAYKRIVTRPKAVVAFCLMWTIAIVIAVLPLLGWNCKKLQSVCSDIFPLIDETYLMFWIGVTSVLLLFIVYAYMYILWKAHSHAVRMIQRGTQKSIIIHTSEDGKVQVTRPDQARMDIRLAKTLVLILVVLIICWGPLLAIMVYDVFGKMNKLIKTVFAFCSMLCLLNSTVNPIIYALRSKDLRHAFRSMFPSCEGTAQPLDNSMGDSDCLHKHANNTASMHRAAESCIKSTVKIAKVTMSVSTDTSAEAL
Assay: rCB1 competition-equilibrium binding with [3H]CP-55,940, rat brain membranes
Set-up: Frozen rat brains (CB1 source) are obtained from Pel-Freeze Biologicals; tissue Pel-Freeze Biologicals (Rogers, AK); host or cells: rat brain membranes
Details: rat brain membranes; Tables 5-8; read-out: rCB1 Ki
experimental.readout: pKi
Schema: pKi number; meaning minus log10 of the concentration expressed in molar units.

Query: Return value of pKi for input CCOC(=O)C(C)(C)c1cc(O)c(-c2cccc(C#N)c2)c(O)c1 [Compound 4.2] , no commentary.
Response: 8.44

----------
Target: mCB2 (Mus musculus)
Construct: expressed in transfected cells; host or cells: HEK293
Sequence (P47936 whole entry): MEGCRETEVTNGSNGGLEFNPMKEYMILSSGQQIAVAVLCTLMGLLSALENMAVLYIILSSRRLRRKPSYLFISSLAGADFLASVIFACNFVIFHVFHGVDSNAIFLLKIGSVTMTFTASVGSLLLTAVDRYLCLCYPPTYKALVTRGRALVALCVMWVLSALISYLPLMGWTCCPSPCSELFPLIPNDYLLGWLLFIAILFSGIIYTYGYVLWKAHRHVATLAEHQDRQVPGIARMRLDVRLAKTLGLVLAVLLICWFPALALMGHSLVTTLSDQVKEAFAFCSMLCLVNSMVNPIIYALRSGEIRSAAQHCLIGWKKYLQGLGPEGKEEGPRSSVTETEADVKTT
Assay: mCB2 competition-equilibrium binding with [3H]CP-55,940, HEK293 membranes
I'd appreciate it if you marked entries YES when Ki is lower than 0.03 µM and NO when it is not.

Query: For CC1(C)Oc2cc(C3(C(=O)O)CCCC3)cc(O)c2C2CC(=O)CCC21 (stereo not drawn) , is the recorded Ki below the cut-off of 0.03 µM?
Response: NO

Query: For `CC1=CC[C@@H]2[C@@H](C1)c1c(O)cc(C(C)(C)C(=O)OCCCN3CCOCC3)cc1OC2(C)C` , is the recorded Ki below the cut-off of 0.03 µM?
Response: NO

Query: For CCOC(=O)C(C)(C)c1cc(O)c2c(c1)OC(C)(C)[C@@H]1CCC(=O)C[C@@H]21 [Compound 34a] , is the recorded Ki below the cut-off of 0.03 µM?
Response: NO

Query: For `CC(C)(CC(=O)O)c1cc(O)c2c(c1)OC(C)(C)[C@@H]1CCC(=O)C[C@@H]21` , is the recorded Ki below the cut-off of 0.03 µM?
Response: NO

Query: For `CC(C)(C(=O)OCCCC#N)c1cc(O)c2c(c1)OC(C)(C)[C@@H]1CCC(=O)C[C@@H]21` , is the recorded Ki below the cut-off of 0.03 µM?
Response: YES

Query: For `CCCOC(=O)CC(C)(C)c1cc(O)c2c(c1)OC(C)(C)[C@@H]1CCC(=O)C[C@@H]21` , is the recorded Ki below the cut-off of 0.03 µM?
Response: YES

----------
Target: hCB2 (Homo sapiens, UniProt P34972)
Construct: expressed in transfected cells; host or cells: HEK293
Sequence (P34972 whole entry): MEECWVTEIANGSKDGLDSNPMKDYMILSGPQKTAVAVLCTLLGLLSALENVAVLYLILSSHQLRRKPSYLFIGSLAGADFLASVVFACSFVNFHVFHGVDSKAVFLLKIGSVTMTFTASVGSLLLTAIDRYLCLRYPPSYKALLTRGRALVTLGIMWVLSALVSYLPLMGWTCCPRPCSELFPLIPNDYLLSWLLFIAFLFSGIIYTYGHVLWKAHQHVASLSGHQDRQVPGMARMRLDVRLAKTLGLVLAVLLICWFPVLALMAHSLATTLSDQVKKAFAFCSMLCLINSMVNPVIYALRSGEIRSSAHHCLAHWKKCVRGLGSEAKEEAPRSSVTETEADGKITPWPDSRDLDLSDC
Assay: hCB2 competition-equilibrium binding with [3H]CP-55,940, HEK293 membranes
experimental.readout: Ki

Study these solved cases before continuing.
1. CC(C)(C(=O)OCCCN=[N+]=[N-])c1cc(O)c2c(c1)OC(C)(C)[C@@H]1CCC(=O)C[C@@H]21 [Compound 9] = 3.1 nM
2. CC(C)(C(=O)OCCCCO[N+](=O)[O-])c1cc(O)c2c(c1)OC(C)(C)[C@@H]1CCC(=O)C[C@@H]21 [Compound 39] = 2.6 nM
3. CCCCCCOC(=O)C(C)(C)c1cc(O)c2c(c1)OC(C)(C)[C@@H]1CCC(=O)C[C@@H]21 [Compound 34d] = 15.1 nM
4. CC(C)(C(=O)OCCCN=C=S)c1cc(O)c2c(c1)OC(C)(C)[C@@H]1CCC(=O)C[C@@H]21 [Compound 10] = 22 nM

Query: Return value of Ki for input CC(C)(C(=O)O)c1cc(O)c2c(c1)OC(C)(C)[C@@H]1CCC(=O)C[C@@H]21 [Compound 32] , no commentary.
Response: > 1000 nM

Query: Return value of Ki for input CCC[C@H](C)OC(=O)C(C)(C)c1cc(O)c2c(c1)OC(C)(C)[C@@H]1CCC(=O)C[C@@H]21 [Compound 34e] , no commentary.
Response: 12.4 nM

Query: Return value of Ki for input CCCCNC(=O)C(C)(C)c1cc(O)c2c(c1)OC(C)(C)[C@@H]1CCC(=O)C[C@@H]21 [Compound 34i] , no commentary.
Response: > 1000 nM
